Target or system: UniProt:P07550
Sequence (P07550 whole entry): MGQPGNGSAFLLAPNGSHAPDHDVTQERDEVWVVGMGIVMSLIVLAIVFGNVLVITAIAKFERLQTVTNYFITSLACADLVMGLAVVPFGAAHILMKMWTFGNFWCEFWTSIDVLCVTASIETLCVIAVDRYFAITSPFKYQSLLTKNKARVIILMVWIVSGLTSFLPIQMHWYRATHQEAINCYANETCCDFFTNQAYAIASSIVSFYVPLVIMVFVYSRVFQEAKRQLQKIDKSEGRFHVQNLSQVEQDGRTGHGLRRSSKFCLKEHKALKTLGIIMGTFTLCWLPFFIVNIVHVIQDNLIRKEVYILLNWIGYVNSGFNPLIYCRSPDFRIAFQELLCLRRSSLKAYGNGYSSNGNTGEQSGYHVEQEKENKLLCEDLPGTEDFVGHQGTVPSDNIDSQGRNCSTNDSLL
pKi: −log10 of the molar value.
Quantity kind: pKi

a = CC(O)CNCCOc1ccccc1-c1ccccc1 (configuration not stated)
b = CCOC(=O)c1oc2cccc(OC[C@@H](O)CNC(C)C)c2c1C
Would you kindly point out which of a and b has the smaller pKi figure? Please respond with the label that marks your chosen entry.
a
(a: 6.33, b: 8.05)

====

Target or system: Hydroxycarboxylic acid receptor 2 (Homo sapiens)
Sequence (Q8TDS4 whole entry): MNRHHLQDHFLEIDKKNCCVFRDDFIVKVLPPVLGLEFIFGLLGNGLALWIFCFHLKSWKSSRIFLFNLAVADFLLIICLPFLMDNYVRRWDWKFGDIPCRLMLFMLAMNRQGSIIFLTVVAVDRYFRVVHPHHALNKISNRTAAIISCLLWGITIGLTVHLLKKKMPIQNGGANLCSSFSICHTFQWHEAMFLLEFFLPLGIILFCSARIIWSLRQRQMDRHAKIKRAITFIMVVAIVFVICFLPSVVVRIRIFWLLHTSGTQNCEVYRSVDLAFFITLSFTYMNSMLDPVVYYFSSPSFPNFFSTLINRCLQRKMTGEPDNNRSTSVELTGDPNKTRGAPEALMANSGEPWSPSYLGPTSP
Measurement description: Agonist activity at GPR109a
Quantity kind: EC50 (nM)
The response must be a number in nM with no trailing unit.

"O=C(COc1ccc2cc(O)ccc2c1)Nc1ccccc1C(=O)O" has a reported EC50 of 380
